For each record, write down the corresponding MIC.
- Test system: Escherichia coli
- Method Notes: Antimicrobial activity against Escherichia coli MC4100 harboring pB-acc4 plasmid by agar dilution technique
- Assay type: functional
Just the number in µg/mL, nothing appended.

Recorded MIC of CO/N=C(\C(=O)N[C@@H]1C(=O)N2C(C(=O)[O-])=C(C[N+]3(C)CCCC3)CS[C@H]12)c1csc(N)n1 , please.
0.25

Query CC(C)(O/N=C(\C(=O)N[C@@H]1C(=O)N2C(C(=O)[O-])=C(C[n+]3ccccc3)CS[C@H]12)c1csc(N)n1)C(=O)O next
512

Query CO[C@@]1(NC(=O)Cc2cccs2)C(=O)N2C(C(=O)O)=C(COC(N)=O)CS[C@@H]21 next
4

----------
For each record, write down the corresponding Vmax.
- Test system: Hafnia alvei
- Method Notes: Activity of Hafnia alvei beta-lactamase ACC-1 assessed as nmol of compound hydrolysis per ug of protein

Recorded Vmax of CO[C@@]1(NC(=O)Cc2cccs2)C(=O)N2C(C(=O)O)=C(COC(N)=O)CS[C@@H]21 [CEFOXITIN] , please.
< 0.002 nmol/min/µg

Query CCN1CCN(C(=O)N[C@@H](C(=O)N[C@@H]2C(=O)N3[C@@H]2SC(C)(C)[C@@H]3C(=O)O)c2ccccc2)C(=O)C1=O [PIPERACILLIN] next
0.17 nmol/min/µg

Query CO/N=C(\C(=O)N[C@@H]1C(=O)N2C(C(=O)O)=C(COC(C)=O)CS[C@H]12)c1csc(N)n1 [CEFOTAXIME] next
< 0.01 nmol/min/µg

Query CC(C)(O/N=C(\C(=O)N[C@@H]1C(=O)N2C(C(=O)[O-])=C(C[n+]3ccccc3)CS[C@H]12)c1csc(N)n1)C(=O)O [CEFTAZIDIME] next
< 0.025 nmol/min/µg

----------
- Tested on: Escherichia coli
- Method Notes: Antimicrobial activity against Escherichia coli MC4100 harboring pB-acc4 plasmid by agar dilution technique
- Assay type: functional
For each record, write down the corresponding MIC.
Just the number in µg/mL, nothing appended.

Recorded MIC of C[C@H]1[C@H](NC(=O)/C(=N\OC(C)(C)C(=O)O)c2csc(N)n2)C(=O)N1S(=O)(=O)O [AZTREONAM] , please.
2

Query CCN1CCN(C(=O)N[C@@H](C(=O)N[C@@H]2C(=O)N3[C@@H]2SC(C)(C)[C@@H]3C(=O)O)c2ccccc2)C(=O)C1=O [PIPERACILLIN] next
128

Query CO[C@@]1(NC(=O)C2SC(=C(C(N)=O)C(=O)O)S2)C(=O)N2C(C(=O)O)=C(CSc3nnnn3C)CS[C@@H]21 (some centres not stated) [CEFOTETAN] next
1

Query CO/N=C(\C(=O)N[C@@H]1C(=O)N2C(C(=O)O)=C(COC(C)=O)CS[C@H]12)c1csc(N)n1 [CEFOTAXIME] next
64

Query CO/N=C(\C(=O)N[C@@H]1C(=O)N2C(C(=O)O)=C(CSc3nc(=O)c(O)nn3C)CS[C@H]12)c1csc(N)n1 [CEFTRIAXONE] next
128

----------
- Tested on: Escherichia coli
- Method Notes: Antimicrobial activity against Escherichia coli MC4100 harboring pBCSK plasmid by agar dilution technique
- Format: functional
With a cut-off of 1 µg/mL, any MIC strictly below it is called Condition met; any MIC meeting it or above is called Condition not met.

Please let me know if CO[C@@]1(NC(=O)Cc2cccs2)C(=O)N2C(C(=O)O)=C(COC(N)=O)CS[C@@H]21 shows MIC below 1 µg/mL.
Condition not met

Query CCN1CCN(C(=O)N[C@@H](C(=O)N[C@@H]2C(=O)N3[C@@H]2SC(C)(C)[C@@H]3C(=O)O)c2ccccc2)C(=O)C1=O next
Condition met

Query CO[C@@]1(NC(=O)C2SC(=C(C(N)=O)C(=O)O)S2)C(=O)N2C(C(=O)O)=C(CSc3nnnn3C)CS[C@@H]21 (stereo not given in full) next
Condition met

Query CC(=O)OCC1=C(C(=O)O)N2C(=O)[C@@H](NC(=O)Cc3cccs3)[C@H]2SC1 next
Condition not met

Query CO/N=C(\C(=O)N[C@@H]1C(=O)N2C(C(=O)O)=C(CSc3nc(=O)c(O)nn3C)CS[C@H]12)c1csc(N)n1 next
Condition met

Query CC1(C)S[C@@H]2[C@H](NC(=O)[C@H](N)c3ccc(O)cc3)C(=O)N2[C@H]1C(=O)O next
Condition not met

Query CC(C)(O/N=C(\C(=O)N[C@@H]1C(=O)N2C(C(=O)[O-])=C(C[n+]3ccccc3)CS[C@H]12)c1csc(N)n1)C(=O)O next
Condition met

Query N[C@@H](C(=O)N[C@@H]1C(=O)N2C(C(=O)O)=C(Cl)CS[C@H]12)c1ccccc1 [CEFACLOR ANHYDROUS] next
Condition not met

Query CO/N=C(\C(=O)N[C@@H]1C(=O)N2C(C(=O)O)=C(COC(C)=O)CS[C@H]12)c1csc(N)n1 next
Condition met
